Target: T1, CRBN, Q96SW2;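 also: pooled lentiviral library of zinc finger degron-EGFP fusions in mCherry-positive Jurkat cells, FACS-sorted after compound exposure, with degron abundance counted by next-generation sequencing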
T1 chain: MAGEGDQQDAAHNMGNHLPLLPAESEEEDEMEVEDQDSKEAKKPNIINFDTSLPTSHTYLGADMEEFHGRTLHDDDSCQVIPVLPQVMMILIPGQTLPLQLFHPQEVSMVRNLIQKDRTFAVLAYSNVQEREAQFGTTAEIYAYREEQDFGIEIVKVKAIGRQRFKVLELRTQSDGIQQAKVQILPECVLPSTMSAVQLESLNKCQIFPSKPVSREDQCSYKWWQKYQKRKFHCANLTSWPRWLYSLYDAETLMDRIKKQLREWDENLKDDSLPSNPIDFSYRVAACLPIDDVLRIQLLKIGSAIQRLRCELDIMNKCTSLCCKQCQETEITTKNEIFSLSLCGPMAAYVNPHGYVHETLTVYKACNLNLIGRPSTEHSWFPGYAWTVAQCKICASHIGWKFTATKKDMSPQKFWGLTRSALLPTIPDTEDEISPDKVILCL
Assay: log2 fold change of degron read counts, EGFP-low vs EGFP+ sorted cells (limma voom), compound-induced degradation; higher = more compound-induced degradation of the degron-EGFP fusion; degrons are variants of IKZF1/3 zinc finger 2; compound dose not given here
Conditions: Jurkat; 18 h; compound: thalidomide
Over roughly 8,300 sequences, “log2 fold change of degron read counts, EGFP-low vs EGFP+ sorted cells (limma voom), compound-induced degradation” has its median near -1.1; the highest 2% begin near 3.2. The list comes from a sample in which the highest values are over-represented; it also holds close analogues and randomly drawn sequences.
measurement kind: log2 fold change of degron read counts
Respond with the number and no other words.

The cases that follow already have their log2 fold change of degron read counts on record.
>>> df
                             residue_string                        measurement_kind  assay_value
0  FHCEICGASFTQKGNLLRHIKL [46F_47H_49E_50I_52G_53A_54S_55F_67L_, Q9UKT9]  log2 fold change of degron read counts         0.22
1  FHCPICGHHFTQKGNLLRHIKL [46F_47H_49P_50I_52G_53H_54H_55F_67L_, Q9UKT9]  log2 fold change of degron read counts        -1.88
2  FMCNQCGAKFTQKGNLLRHIKL [46F_47M_49N_50Q_52G_53A_54K_55F_67L_, Q9UKT9]  log2 fold change of degron read counts        -2.11

Consider the sequence FQCEICGASFTQKGNLLRHIKL [46F_47Q_49E_50I_52G_53A_54S_55F_67L_, Q9UKT9] and give its measured log2 fold change of degron read counts.
3.75
